Source of measurements: paper PMC6476926

# Tested on: HIV-1IIIB
# procedure summary: microbe, parasite or virus in culture
# Type: cell-based, Human Immunodeficiency Virus type-1 (HIV-1)
# condition context: Human immunodeficiency virus 1, MT4, read-out: EC50 HIV-1IIIB
Overview of reported EC50 across a group of molecules:

molecule	value
N#Cc1ccc(C(=O)Nc2ccc(-n3nc4cc(Cl)c(Cl)cc4n3)cc2)cc1	> 100 µM
CCCC(=O)N(C(=O)CCC)c1ccc(-n2nc3cc(Cl)c(Cl)cc3n2)cc1	> 24 µM

Consider COc1cc(C(=O)Nc2ccc(-n3nc4cc(Cl)c(Cl)cc4n3)cc2)cc(OC)c1OC . Its measured EC50 is > 63 µM

Consider CC(=O)Nc1ccc(-n2nc3cc(Cl)c(Cl)cc3n2)cc1 . Its measured EC50 is > 100 µM

Consider CCCNC(=O)Nc1ccc(-n2nc3cc(Cl)c(Cl)cc3n2)cc1 [10b] . Its measured EC50 is > 100 µM
